These measurements were taken from ChEMBL document CHEMBL3297663.

# TESTED ON: Hydroxycarboxylic acid receptor 3 (Homo sapiens) (UniProt P49019)
# Sequence (P49019 whole entry): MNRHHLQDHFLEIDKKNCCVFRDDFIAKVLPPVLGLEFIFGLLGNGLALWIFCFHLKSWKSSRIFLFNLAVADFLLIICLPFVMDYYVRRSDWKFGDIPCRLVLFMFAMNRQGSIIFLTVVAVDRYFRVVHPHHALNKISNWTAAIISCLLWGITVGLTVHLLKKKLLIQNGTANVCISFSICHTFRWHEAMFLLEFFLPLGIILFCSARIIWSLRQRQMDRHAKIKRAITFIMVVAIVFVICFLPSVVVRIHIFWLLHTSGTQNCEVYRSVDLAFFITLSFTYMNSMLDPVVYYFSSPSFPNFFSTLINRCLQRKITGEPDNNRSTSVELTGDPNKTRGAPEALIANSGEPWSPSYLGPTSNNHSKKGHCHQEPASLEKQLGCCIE
# ASSAY INFO: Agonist activity at human HCA3 receptor expressed in Flp-In-293 cells assessed as inhibition of forskolin-induced cAMP accumulation at 50 uM after 30 mins
# Type: functional, cell-based
PARAMETER MEASURED: inhibition (%)

Below: 6 compounds and their reported inhibition.
O=C(/C=C/C#Cc1ccccc1)NC1=C(C(=O)O)CCCC1 = 56
O=C(/C=C/c1ccc2ncccc2c1)NC1=C(C(=O)O)CCCC1 = 39
O=C(CCc1ccc2ncccc2c1)NC1=C(C(=O)O)CCCC1 = 60
COc1cc2nc(/C=C/C(=O)NC3=C(C(=O)O)CCCC3)ccc2c(OC)c1OC = 61
O=C(/C=C/c1ccc2c(c1)OCCO2)NC1=C(C(=O)O)CCCC1 = 66
O=C(/C=C/c1cccc2cccnc12)NC1=C(C(=O)O)CCCC1 = 54

I = O=C(CCc1ccc2ccccc2c1)NC1=C(C(=O)O)CCCC1
II = COc1cc(/C=C/C(=O)NC2=C(C(=O)O)CCCC2)cc(Br)c1OC
// which entry reports the smaller inhibition, I or II ? Answer format: the label of the selected item.
II

====

# TESTED ON: Hydroxycarboxylic acid receptor 2 (Homo sapiens, UniProt Q8TDS4)
# Sequence (Q8TDS4 whole entry): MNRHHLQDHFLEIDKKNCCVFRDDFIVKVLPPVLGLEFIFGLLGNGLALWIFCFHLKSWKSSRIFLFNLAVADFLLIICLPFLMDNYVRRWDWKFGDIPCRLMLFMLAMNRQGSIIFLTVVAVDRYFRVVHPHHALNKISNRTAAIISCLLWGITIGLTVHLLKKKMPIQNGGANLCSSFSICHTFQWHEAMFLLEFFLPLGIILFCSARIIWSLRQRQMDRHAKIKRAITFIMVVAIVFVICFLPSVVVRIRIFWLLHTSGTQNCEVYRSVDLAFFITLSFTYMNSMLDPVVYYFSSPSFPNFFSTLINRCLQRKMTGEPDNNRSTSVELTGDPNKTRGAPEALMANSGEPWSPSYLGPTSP
# ASSAY INFO: Agonist activity at human HCA2 receptor expressed in Flp-In-293 cells assessed as inhibition of forskolin-induced cAMP accumulation after 30 mins
# Type: functional, cell-based
PARAMETER MEASURED: Emax (%)

Cc1ccc2cc(CCC(=O)NC3=C(C(=O)O)CCCC3)ccc2n1 = 82
COc1ccc2nc(Cl)c(CCC(=O)NC3=C(C(=O)O)CCCC3)cc2c1 = 91
O=C(/C=C/c1ccc2c(c1)OCCO2)NC1=C(C(=O)O)CCCC1 = 93
O=C(CCc1ccc2c(c1)OCO2)NC1=C(C(=O)O)CCCC1 = 85
COc1ccc(/C=C/C(=O)NC2=C(C(=O)O)CCCC2)c(Cl)c1OC = 95
O=C(/C=C/C#Cc1ccccc1)NC1=C(C(=O)O)CCCC1 = 90
O=C(/C=C/c1cc2ccccc2nc1Cl)NC1=C(C(=O)O)CCCC1 = 79
O=C(/C=C/c1ccc2cc(O)ccc2c1)NC1=C(C(=O)O)CCCC1 = 96
O=C(/C=C/c1ccc2ccccc2n1)NC1=C(C(=O)O)CCCC1 = 99
O=C(/C=C/c1ccc2c(c1)OCO2)NC1=C(C(=O)O)CCCC1 = 83
O=C(C#Cc1ccc2cc(O)ccc2c1)NC1=C(C(=O)O)CCCC1 = 98
